biological target: recombinant purified human IL-12 p70 (human) (UniProt P29459); test: cell-based or functional assay
Sequence (chain, as listed by the source, form in doubt, chain 1 of 2): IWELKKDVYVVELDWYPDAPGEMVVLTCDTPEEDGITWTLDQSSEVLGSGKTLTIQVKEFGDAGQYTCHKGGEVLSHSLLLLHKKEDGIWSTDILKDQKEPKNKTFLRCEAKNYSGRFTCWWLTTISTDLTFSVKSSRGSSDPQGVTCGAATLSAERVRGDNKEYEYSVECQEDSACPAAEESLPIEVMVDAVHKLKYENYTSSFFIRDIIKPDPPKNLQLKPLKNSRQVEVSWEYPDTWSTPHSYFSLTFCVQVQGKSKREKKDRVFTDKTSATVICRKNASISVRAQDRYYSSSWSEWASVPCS
Sequence (P29459 23-219, form in doubt, chain 2 of 2): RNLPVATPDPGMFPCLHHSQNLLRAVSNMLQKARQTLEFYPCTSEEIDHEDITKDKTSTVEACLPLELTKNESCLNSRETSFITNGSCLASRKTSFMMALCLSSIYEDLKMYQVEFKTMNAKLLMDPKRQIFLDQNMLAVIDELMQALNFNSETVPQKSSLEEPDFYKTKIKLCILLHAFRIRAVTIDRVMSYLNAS
observable: Av. IC50(nM) huIL-12; PHA blast IFN-gamma induction assay
Number in nM, nothing else.

Observe how each entry below is paired with its result.
binder	experimental.result
1A6.12 (antibody, IgG1, V domains shown) VH: EVTLRESGPGLVKPTQTLTLTCTLYGFSLSTSGMGVSWIRQPPGKGLEWLAHIWWDGDNYYNPSLKSQLTISKDTSKNQVVLKLTSVDPVDTATYYCARRTRVNYAMDYWGQGTLVTVSS VL: DIQMTQSPSSLSASVGDRVTITCKASQSVSNDVAWFQQKPGKAPKLLIYYASNRYTGVPDRFSGSGYGTDFTFTISSLQPEDIATYYCQQDYNSPWTFGGGTKVEIKR	0.088
1A6.9 (antibody, human IgG1, kappa, L234A L235A, V domains shown) VH: EVTLRESGPALVKPTQTLTLTCTFSGFSLSTSGMGVSWIRQPPGKALEWLAHIWWDGDNYYNPSLKSRLTISKDTSKNQVVLTMTNMDPVDTATYYCARRTRVNYAMDYWGQGTTVTVSS VL: SVVMTQSPDSLAVSLGERATINCKASQSVSNDVAWFQQKPGQPPKLLIYYASNRYTGVPDRFSGSGYGTDFTLTISSLQAEDVAVYYCQQDYNSPWTFGGGTKVEIKR	0.15
1D4.5 (antibody, human IgG1, V domains shown) VH: QVTLKESGPGILQPSQTLSLTCSFSGFSLRKSVMGVSWIRQPSGKGLEWLAHIYWDDDKYYNPSLKSRLTISKDPSRNQVFLKITSVDTADAATYYCTRRGIRSAMDYWGQGTSVTVSS VL: DIVMTQSPDSLAVSLGERATINCKASQSVSNDVAWYQQKPGQPPKLLIYYASNRYTGVPDRFSGSGSGTDFTLTISSLQAEDVAVYYCQQDYNSPWTFGGGTKVEIKR	0.053
1A6.3 (antibody, human IgG1, V domains shown) VH: EVTLKESGPVLVKPTETLTLTCTVSGFSLSTSGMGVSWIRQPPGKALEWLAHIWWDGDNYYNPSLKSRLTISKDTSKSQVVLTMTNMDPVDTATYYCARRTRVNYAMDYWGQGTTVTVSS VL: SVVMTQTPKFLLVSAGDRVTITCKASQSVSNDVAWFQQKPGQSPKLLIYYASNRYTGVPDRFTGSGYGTDFTFTISTVQAEDLAVYFCQQDYNSPWTFGGGTKLEIKR	0.068
8E1.3 (antibody, human IgG1, kappa, L234A L235A, V domains shown) VH: EVKLVESGGGLVQPGGSLRLSCAASGFTFSDYGMVWVRQAPGKGLEWVASISSGSSNIYYADTVKGRFTISRDDSKNTLYLQMNSLKTEDTAVYYCARNPYWGQGTTVTVSS VL: DIVMTQSPSSLSASVGDRVTITCKASQNVGTNVAWYQQKPEKAPKSLIYSASHRYSGVPSRFSGSGSGTDFTLTISSLQPEDFATYYCQQYNSYPLTFGGGTKVEIKR	10

**Query** Tell me measured Av. IC50(nM) huIL-12; PHA blast IFN-gamma induction assay for 8E1.4 (antibody, IgG1, V domains shown) VH: EVQLVESGGGLVQPGGSLRLSCAASGFTFSDYGMVWVRQAPGKGLEWVASISSGSSNIYYADTVKGRFTISRDNAKNTLYLQMNSLRAEDTAVYYCARNPYWGQGTLVTVSS VL: DIQMTQSPSSLSASVGDRVTITCKASQNVGTNVAWYQQKPGKAPKGLIYSASHRYSGVPSRFSGSGSGTDFTLTISSLQPEDFATYYCQQYNSYPLTFGGGTKVEIKR please.
**Result** 12

**Query** Tell me measured Av. IC50(nM) huIL-12; PHA blast IFN-gamma induction assay for 1A6.10 (antibody, V domains shown) VH: EVTLRESGPGLVKPTQTLTLTCTLYGFSLSTSGMGVSWIRQPPGKGLEWLAHIWWDGDNYYNPSLKSQLTISKDTSKNQVVLKLTSVDPVDTATYYCARRTRVNYAMDYWGQGTLVTVSS VL: DIQMTQSPSSLSASVGDRVTITCKASQSVSNDVAWYQQKPGKAPKLLIYYASNRYTGVPDRFSGSGYGTDFTFTISSLQPEDIATYYCQQDYNSPWTFGGGTKVEIKR please.
**Result** 0.15

Values compiled from patent US20100047245A1.
